Test system: HaCat
experimental protocol: Cytotoxic Profiling of Annotated Libraries Using Quantitative High-Throughput Screening (AID 1296008); further: on the % scale 0 is the no-effect control and ±100 the full control effect; nearly all actives have a fitted effect of over 60% in size
setup conditions: Five cell lines viability, CellTiter-Glo ATP luminescence, 48-72 h; active compounds read low
Records with an inconclusive call do not appear. Activity calls are given as the source filed them. The call rests on the fitted dose curve; in most records, active means well fitted inhibition curve with a large enough effect; inconclusive means small, poorly fitted or top-dose-only effect; inactive means flat fitted curve, though single readings scatter.

# molecule, max response
rows = [
    ("CCC(=O)OCC(=O)[C@@]1(OC(=O)CC)[C@@H](C)C[C@H]2[C@@H]3CCC4=CC(=O)C=C[C@]4(C)[C@@]3(F)[C@@H](O)C[C@@]21C", "-29.8% (inactive)"),
    ("CN1CCc2cc(Cl)c(O)cc2[C@@H](c2cccc3c2OCC3)C1", "-1.65% (inactive)"),
    ("CC(C)c1ccc2c(c1)[C@H](O)CC1[C@@](C)(C(=O)O)CCC[C@]21C (stereo partly specified)", "-16.8% (inactive)"),
    ("CC1=C2C3OC(=O)C(C)C3(O)CCC2(C)CCC1 (stereo unspecified)", "0.93% (inactive)"),
    ("CC1=CCC2C(C)(C)CCCC2(C)C1CC12OC1C(O)C(CO)=CC2O (stereo unspecified)", "-4.23% (inactive)"),
    ("CC1=C2CC3C(CCC3(C)O)C(C)(O)CC2OC1=O (stereo unspecified)", "3.12% (inactive)"),
    ("Cc1cc(CNC(=O)c2cc(C(=O)NCc3ccc(F)c(C)c3)ncn2)ccc1F", "-0.507% (inactive)"),
    ("C/C=C(\\C)C1C(C)=CC2CCC(OS(=O)(=O)O)C(C)C2C1/C=C/C=C/C(=O)O (stereo unspecified)", "-12.6% (inactive)"),
    ("C=C1CC[C@@]2(OC1)O[C@H]1CC3C4CC=C5C[C@@H](O[C@@H]6O[C@@H](C)[C@H](O)[C@@H](O)[C@H]6O)C[C@@H](O[C@@H]6O[C@H](C)[C@H](O)[C@H](O)[C@H]6O[C@@H]6O[C@@H](C)[C@H](O)[C@@H](O)[C@H]6O)[C@]5(C)C4CC[C@]3(C)[C@H]1[C@@H]2C (stereo partly specified)", "-14.8% (inactive)"),
    ("C=C(C(=O)O)[C@@H]1CC[C@H](C)[C@@H]2CC(=O)C(C)=C2C1", "-2.91% (inactive)"),
    ("Cc1ncc(Cl)cc1NCc1ccc(C(=O)NC(CC2CCCC2)C(=O)NC2CC2)s1 (stereo unspecified)", "-11.9% (inactive)"),
    ("C=C(C(=O)O)[C@@H]1CC[C@@]2(C)CC[C@@H](O)C(=C)C2C1 (stereo partly specified)", "-0.0078% (inactive)"),
    ("C[C@@H]1CC[C@]2(C(=O)O)CC[C@]3(C)C(=CCC4[C@@]5(C)C[C@@H](O)[C@@H](O)C(C)(C)C5CC[C@]43C)C2[C@]1(C)O (stereo partly specified)", "-10.3% (inactive)"),
    ("CC(C)=C1C[C@@]2(C)C(=CC1=O)CC[C@@H](O)[C@@H]2C", "-1.2% (inactive)"),
    ("Nc1nc2c(nc(Sc3ccc(Cl)cc3)n2[C@@H]2O[C@@H]3COP(=O)(O)O[C@H]3[C@H]2O)c(=O)[nH]1", "-3.37% (inactive)"),
    ("CC1OC(OC2C(OC3C(O[C@H]4CC[C@@]5(C)C(CC[C@]6(C)C5CC=C5C7CC(C)(C)CC(O)[C@]7(C)CC[C@]56C)C4(C)C)OC(C(=O)O)C(O)C3O)OCC(O)C2O)C(O)C(O)C1O (stereo partly specified)", "-11.3% (inactive)"),
]
